Data provenance is paper PMC12429009.

- experimentalTarget: the molecule itself
- assayInfo: native gel or EMSA
endpoint: stoichiometry N

1) 14-3-3ζ E180AN173V (natural protein, human, UniProt P63104 1-245, looked up) MDKNELVQKAKLAEQAERYDDMAACMKSVTEQGAELSNEERNLLSVAYKNVVGARRSSWRVVSSIEQKTEGAEKKQQMAREYREKIETELRDICNDVLSLLEKFLIPNASQAESKVFYLKMKGDYYRYLAEVAAGDDKKGIVDQSQQAYQEAFEISKKEMQPTHPIRLGLALVFSVFYYAILNSPEKACSLAKTAFDEAIAELDTLSEESYKDSTLIMQLLRDNLTLWTSDTQGDEAEAGEGGEN    2
2) 14-3-3ζ R55A (natural protein, human, UniProt P63104 1-245, looked up) MDKNELVQKAKLAEQAERYDDMAACMKSVTEQGAELSNEERNLLSVAYKNVVGAARSSWRVVSSIEQKTEGAEKKQQMAREYREKIETELRDICNDVLSLLEKFLIPNASQAESKVFYLKMKGDYYRYLAEVAAGDDKKGIVDQSQQAYQEAFEISKKEMQPTHPIRLGLALNFSVFYYEILNSPEKACSLAKTAFDEAIAELDTLSEESYKDSTLIMQLLRDNLTLWTSDTQGDEAEAGEGGEN    2
